target: ScSho1; assay: SPOT peptide array binding signal intensity (averaged, normalized) (arbitrary units (background-subtracted, floor 0; scale differs between SH3 domains)); higher = stronger binding of the SH3 domain to the peptide
Catalogue of binders with associated SPOT peptide array binding signal intensity
MEASUREMENT LABEL: SPOT peptide array binding signal intensity

1) KDKKTKPTPPPKPSH | 334
2) VGFRLALKFPSRITG | 3930
3) QTREPNEPPPPSPAM | 2
4) QRIRKIPGIPLMSVG | 1280

All values here come from the supplement of paper PMC4466140.
